Test system: U-937
Assay summary: Cytotoxicity MTS, leukemias/lymphomas, U-937
Format: cell-based
Condition notes: 4-Parameter Curve Fit, NA = not active, read-out: Cytotoxicity IC50 Lymphoma (Histiocytic) U-937
Property: IC50; scope: individual compounds

- Compound: "CCCCCCCCCCCCCCCCC(O)C(C)N (centres unmarked)"
  IC50 / nM: 29.8
- Compound: "CCCCCCCCCCCCCCCC(O)C(C)N (centres unmarked)"
  IC50 / nM: 981

###

Test system: 786-O
Assay summary: Cytotoxicity MTS, solid tumors, Renal 786-O
Assay type: cell-based
Condition notes: 4-Parameter Curve Fit, NA = not active
Assay readout: IC50 (nM)

- Compound: "CCCCCCCCCCCCCCC[C@@H](O)[C@@H](N)CF [drawing 122]"
  Obs value: 3300
- Compound: "CCCCCCCCCCCCCCC[C@@H](O)[C@H](C)N [drawing 112]"
  Obs value: 138
- Compound: "CCCCCCCCCCCCCCCC(=O)[C@H](C)N [drawing 118]"
  Obs value: 162
- Compound: "CCCCCCCCCCCCCCCC(=O)[C@@H](N)CC [drawing 121]"
  Obs value: 59800

###

Tested on: A549
Assay summary: Cytotoxicity of spisulosine analogs, A549 (after Berjeron et al)
Type: cell-based
Condition notes: Homo sapiens, A549, A549; methodology after Berjeron et al; NA=not active; read-out: Cytotoxicity IC50 A549
pIC50: −log10 of the molar value. Structures can show the parent of a compound that is named as a salt.
Okay, here is how we bin by pIC50: group 1 (below 6), group 2 (6 to below 7), group 3 (7 or more)

- Compound: "CCCCCCCCCCCC[C@@H](O)[C@H](C)N"
  Label value: "group 2"
- Compound: "CCCCCCCCCCCCCCC[C@H](O)[C@H](C)N"
  Label value: "group 2"
- Compound: "CCCCCCCCCCCCCCC[C@@H](OC)[C@H](C)N"
  Label value: "group 1"
- Compound: "CCCCCCCCCCC[C@@H](O)[C@H](C)N"
  Label value: "group 1"
- Compound: "CCCCCCCCCCCCCCCCC[C@@H](O)[C@@H](N)CC [drawing 62, (3S,4R)-3-Amino-4-heneicosanol]"
  Label value: "group 3"
- Compound: "CCCCCCCCCCCCCCC[C@H](Cl)[C@H](C)N"
  Label value: "group 2"
- Compound: "CCCCCCCCCCCCCC[C@@H](O)[C@H](C)N [drawing 44, (2S,3R)-2-Amino-3-heptadecanol]"
  Label value: "group 3"
- Compound: "CCCCCCCCCCCCCCC[C@H](O)[C@@H](C)N"
  Label value: "group 2"
- Compound: "CCCCCCCCCCCCCCCC[C@@H](O)[C@H](C)N [drawing 49, hydrochloride]"
  Label value: "group 3"
- Compound: "CCCCCCCCCCCCCCC[C@@H](O)[C@H](C)N [drawing 46]"
  Label value: "group 3"
- Compound: "CCCCCCCCCCCCC/C=C/[C@@H](O)[C@@H](N)CF"
  Label value: "group 3"

###

Test system: 5637
Assay summary: Cytotoxicity MTS, solid tumors, Bladder 5637
Format: cell-based
Condition notes: 4-Parameter Curve Fit, NA = not active
pIC50: −log10 of the molar value.
Each entry gets NO if its pIC50 stays under 6, and YES if its pIC50 is 6 or above.

- Molecule: "CCCCCCCCCCCCCCCC(=O)[C@@H](N)CC [drawing 121]"
  Label value: "NO"
- Molecule: "CCCCCCCCCCCCCCCCC[C@@H](O)[C@H](C)N [drawing 114]"
  Label value: "NO"
- Molecule: "CCCCCCCCCCCCCCCC[C@@H](O)[C@H](C)N [drawing 113]"
  Label value: "YES"
- Molecule: "CCCCCCCCCCCCCC[C@@H](O)[C@H](C)N [drawing 117]"
  Label value: "NO"
- Molecule: "CCCCCCCCCCCCCC[C@@H](O)[C@H](C)N [drawing 115]"
  Label value: "YES"
- Molecule: "CCCCCCCCCCCCCCC[C@@H](O)[C@@H](N)CC [drawing 116]"
  Label value: "NO"
- Molecule: "CCCCCCCCCCCCCCCCC(=O)[C@H](C)N [drawing 119]"
  Label value: "NO"

Source listed as patent US20040048834A1.
